Assay: chemical genetic growth profiling, strain panel (AID 1159580);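 also: tested at 20 µM; growth read once vehicle control cultures reached saturation at 30 °C; 1 = growth at the plate median or of vehicle wells; lower values mean less growth of the strain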
Conditions: S. cerevisiae deletion strains, growth OD, locus YGR078C, strain PAC10, stronger effect = lower value
Hit rate of the full screen: of about 5,500 compounds, about 2,000 (36%) were called active. Roughly 18% stayed inconclusive and do not appear here. The list shows a part of the results.
parameter: normalized growth
Number only, please.

>>> readout_number("O=C(CSc1ccc(C(F)(F)F)cn1)N1CCc2c([nH]c3ccccc23)C1C(F)(F)F (stereo not drawn)")
0.984
>>> readout_number("CCc1ccc(CCOc2ccc(CC3SC(=O)NC3=O)cc2)nc1 (stereo not drawn)")
1.06
>>> readout_number("COc1ccc2cc1Oc1ccc(cc1)C[C@H]1c3cc(c(OC)cc3CCN1C)Oc1c(OC)c(OC)cc3c1[C@H](C2)N(C)CC3")
0.996

## Input Please look at this molecule and report its normalized growth: COC(=O)COc1ccc(Cl)cc1Cl
## Output 1.02

## Input Quote normalized growth reported for C[N+](C)(C)CC(=O)[O-] please.
## Output 0.955

## Input Give the measured normalized growth for Cc1ccc(Oc2ccc(C)cc2)cc1
## Output 1

## Input Give normalized growth for the following molecule: O=C(O)COCC(=O)N1CCc2c([nH]c3ccccc23)C1C(F)(F)F (stereo not drawn)
## Output 1.03

## Input Return reported normalized growth. Input molecule: CO[C@H]1C[C@H](O[C@H]2[C@H](C)[C@@H](OC3O[C@H](C)C[C@H](N(C)C)[C@H]3O)[C@@H](C)C[C@]3(CO3)C(=O)[C@H](C)[C@@H](O)[C@@H](C)[C@@H](C)OC(=O)[C@@H]2C)O[C@@H](C)[C@@H]1O (stereo partly drawn)
## Output 1.02
